Measured MTD by item
- experiment-summary: Repeat-dose toxicology study in SD rats
- Assay type: in vivo
- condition-notes: rat, in vivo, repeat dosing schedule

{"columns": ["smiles-entry", "limit-qualifier", "MTD [mg/kg]"],
 "data": [
  ["O=C(/C=C/c1ccc2ccc(C(F)(F)F)cc2n1)c1ccncc1", ">", 30],
  ["O=C(/C=C/c1ccc2ccccc2n1)c1ccncc1", "=", 12]
]}

----------
- target-entity: PFKFB3 (Homo sapiens)
- Sequence (Q16875 whole entry): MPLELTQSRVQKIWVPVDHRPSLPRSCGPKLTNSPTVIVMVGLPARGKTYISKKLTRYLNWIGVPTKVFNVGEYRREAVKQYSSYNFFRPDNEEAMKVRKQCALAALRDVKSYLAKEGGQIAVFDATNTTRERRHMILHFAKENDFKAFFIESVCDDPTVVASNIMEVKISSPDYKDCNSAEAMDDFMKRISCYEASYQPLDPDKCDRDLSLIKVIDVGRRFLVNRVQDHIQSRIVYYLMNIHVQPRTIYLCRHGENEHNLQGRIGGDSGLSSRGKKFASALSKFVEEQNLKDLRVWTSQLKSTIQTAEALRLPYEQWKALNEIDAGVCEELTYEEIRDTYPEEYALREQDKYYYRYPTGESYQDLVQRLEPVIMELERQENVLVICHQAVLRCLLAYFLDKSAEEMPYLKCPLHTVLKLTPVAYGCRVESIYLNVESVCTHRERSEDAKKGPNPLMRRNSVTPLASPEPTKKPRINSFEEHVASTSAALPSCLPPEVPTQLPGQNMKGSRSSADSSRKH
- experiment-summary: Enzymatic activity of PFKFB3 in cells (F2,6BP levels, Van Schaftingen method)
- Assay type: cell-based
- Set-up: endogenous in cells; host or cells: Jurkat cells
- condition-notes: Table 6; Jurkat cells; read-out: IC50 Cellular PFKFB3 (F2,6BP)
pIC50: −log10 of the molar value.

{"columns": ["smiles-entry", "target-entity", "pIC50"],
 "data": [
  ["O=C(/C=C/c1ccc2ccc(C(F)(F)F)cc2n1)c1ccncc1", "PFKFB3 (Homo sapiens)", 5.79]
]}
